Each entry below carries its reported pIC50.
Molecular target: human Plk4 kinase domain (aa 2-275) (Homo sapiens, UniProt O00444)
Sequence (O00444 2-275): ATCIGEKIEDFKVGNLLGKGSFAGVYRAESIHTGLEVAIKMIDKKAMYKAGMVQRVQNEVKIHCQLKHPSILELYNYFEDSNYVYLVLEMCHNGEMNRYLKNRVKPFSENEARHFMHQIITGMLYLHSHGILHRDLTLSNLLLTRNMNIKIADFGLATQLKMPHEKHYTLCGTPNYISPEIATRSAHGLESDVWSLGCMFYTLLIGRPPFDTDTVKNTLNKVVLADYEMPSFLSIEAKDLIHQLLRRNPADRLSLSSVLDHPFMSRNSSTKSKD
pIC50: −log10 of the molar value.
ENDPOINT: pIC50

>>> recorded_measurement("Cc1cc(Nc2nc(Sc3ccc(NC(=O)C4CCCC4)cc3)nc(N(C)C)c2C)n[nH]1")
"> 6.00"
>>> recorded_measurement("CCOc1c(Nc2cc(C)[nH]n2)nc(Sc2ccc(NC(C)=O)cc2)nc1N(C)C")
"6.00 to 7.00"
>>> recorded_measurement("CC(=O)Nc1ccc(Sc2nc(Nc3cc(C)[nH]n3)cc(N3CCN(CCN(C)C)CC3C)n2)cc1 (stereo not drawn)")
"> 6.00"
>>> recorded_measurement("CC(=O)Nc1ccc(Sc2nc(Nc3cc(C)[nH]n3)c(C)c(N3CCC(O)CC3)n2)cc1")
"> 6.00"
>>> recorded_measurement("COc1c(Nc2cc(C)[nH]n2)nc(Sc2ccc(S(=O)(=O)Cc3cccc([N+](=O)[O-])c3F)cc2F)nc1N1CCCCC1 [drawing 379]")
"> 6.00"
>>> recorded_measurement("CCCOc1c(Nc2cc(C)[nH]n2)nc(Sc2ccc(NC(=O)C3CC3)cc2)nc1N(CC)CC")
"6.00 to 7.00"
>>> recorded_measurement("CCOc1c(Nc2cc(C)[nH]n2)nc(Sc2ccc(NC(=O)C3CC3)cc2)nc1N1CCN(C(=O)CCOC)CC1")
"6.00 to 7.00"
>>> recorded_measurement("COC(=O)c1cccc(CS(=O)(=O)c2ccc(Sc3nc(Nc4cc(C)[nH]n4)c(OC)c(N4CCOCC4)n3)c(F)c2)c1F")
"> 6.00"
>>> recorded_measurement("COc1c(Nc2cc(C)[nH]n2)nc(Sc2ccc(S(=O)(=O)Cc3cccc(F)c3F)cc2F)nc1N1CCCCC1")
"> 6.00"
>>> recorded_measurement("COc1c(Nc2cc(C)[nH]n2)nc(Sc2ccc(S(=O)(=O)Cc3cccc([N+](=O)[O-])c3)cc2)nc1N1CCN(CCN(C)C)CC1")
"> 6.00"
>>> recorded_measurement("COC(=O)c1cccc(CS(=O)(=O)c2ccc(Sc3nc(Nc4cc(C)[nH]n4)c(OC)c(N4CCN(CCN(C)C)CC4)n3)cc2)c1")
"> 6.00"
>>> recorded_measurement("CCOc1c(Nc2cc(C)[nH]n2)nc(Sc2ccc(NC(=O)C3CC3)cc2)nc1N(CC)CC [drawing 127]")
"6.00 to 7.00"
>>> recorded_measurement("CC(=O)Nc1ccc(Sc2nc(Nc3cc(C)[nH]n3)c(C)c(N3CCC(F)(F)CC3)n2)cc1")
"> 6.00"
>>> recorded_measurement("Cc1cc(Nc2nc(Sc3ccc(NC(=O)C4CCC4)cc3)nc(N3CCN(C)CC3)c2C)n[nH]1")
"> 6.00"
>>> recorded_measurement("COc1c(Nc2cc(C)[nH]n2)nc(Sc2ccc(NC(C)=O)cc2)nc1N1CCN(C(C)=O)CC1")
"> 6.00"
>>> recorded_measurement("COc1c(Nc2cc(C)[nH]n2)nc(Sc2ccc(NC(C)=O)cc2)nc1N1CCN(CCN(C)OC)CC1")
"> 6.00"
>>> recorded_measurement("Cc1cc(Nc2nc(Sc3ccc(N)cc3)nc3c2CCC32CCN(CCN(C)C)CC2)n[nH]1")
"> 6.00"
>>> recorded_measurement("Cc1cc(Nc2nc(Sc3ccccc3)nc(N3CCC(O)CC3)c2C)n[nH]1")
"> 6.00"
>>> recorded_measurement("COCC(=O)N1CCN(c2nc(Sc3ccc(NC(=O)C4CC4)cc3)nc(Nc3cc(C)[nH]n3)c2OC)CC1")
"> 6.00"
>>> recorded_measurement("CCS(=O)(=O)c1ccc(Sc2nc(Nc3cc(C)[nH]n3)c(OC)c(N3CCN(CCN(C)C)CC3)n2)c(Cl)c1")
"> 6.00"
>>> recorded_measurement("COc1c(C)nc(Sc2ccc(S(=O)(=O)Cc3ccccc3)cc2)nc1Nc1cc(C)[nH]n1")
"> 6.00"
